molecular target: human CYP17 in H295R adrenocortical carcinoma cells (Homo sapiens); construct: H295R Adrenocortical carcinoma cells [NCI-H295A, ATCC Number CRL-2128, American Type Culture Collection; host or cells: H295R adrenocortical carcinoma cells; assay: Cell-based human CYP17 inhibition assay, H295R cells; details: 16 hours, read-out: CYP17 (human H295R adrenal cells)
Sequence (P05093 whole entry): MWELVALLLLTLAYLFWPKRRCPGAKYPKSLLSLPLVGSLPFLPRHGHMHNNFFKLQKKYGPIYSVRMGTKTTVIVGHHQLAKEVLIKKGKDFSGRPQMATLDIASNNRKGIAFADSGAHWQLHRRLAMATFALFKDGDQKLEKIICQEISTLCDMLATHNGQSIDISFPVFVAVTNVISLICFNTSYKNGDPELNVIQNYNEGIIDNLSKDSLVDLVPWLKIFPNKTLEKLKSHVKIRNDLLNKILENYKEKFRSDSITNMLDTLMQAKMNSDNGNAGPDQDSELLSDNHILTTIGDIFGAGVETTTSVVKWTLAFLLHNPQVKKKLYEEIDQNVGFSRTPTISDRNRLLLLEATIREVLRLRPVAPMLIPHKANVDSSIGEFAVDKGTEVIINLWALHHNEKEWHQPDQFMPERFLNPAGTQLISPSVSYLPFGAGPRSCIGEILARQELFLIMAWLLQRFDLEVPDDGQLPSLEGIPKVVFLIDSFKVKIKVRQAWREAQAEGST
# IC50 per entry

Recorded results for 6 compounds are shown here.
OC1(c2cnc(-c3ccc(F)cc3)s2)CCCc2cnccc21 (stereo not shown) :: 201 to 10000 nM
CC(O)(c1ccncc1)c1cnc(-c2ccc(F)cc2)s1 (racemic) [Example 7] :: 50 to 200 nM
CC(O)(c1ccncc1)c1cnc(-c2ccc(Cl)c(Cl)c2)s1 (stereo not shown) :: < 50 nM
COc1ccc(-c2ccc(C(C)(O)c3ccncc3)nc2)cc1 (single isomer, unassigned) [Example 2] :: 50 to 200 nM
OC1(c2cnc(-c3ccc(F)cc3)s2)CCc2cnccc21 (stereo not shown) :: 201 to 10000 nM
CC(O)(c1ccncc1)c1cnc(-c2ccc(Cl)cc2)s1 (stereo not shown) :: < 50 nM

Consider CC(O)(c1ccncc1)c1nc(-c2ccc(F)cc2)no1 (stereo not shown) [Example 34] . Its measured IC50 is < 50 nM

Recorded IC50 (compound CC(O)(c1ccncc1)c1cc(-c2ccc(F)cc2)on1 (stereo not shown) ): 50 to 200 nM
